- System: SK-MEL-2 melanoma
- Test Name: NCI-60 one-dose screen, 48 h
- Run Conditions: 10 µM unless noted
About 83,000 compounds went through this panel and 20% of them were active in at least one assay; those are over-represented in the sample as a whole. The source made the active and inactive calls. How the source made its calls: active means growth percent below 10; inactive means the rest.
Pick one and only one: YES (active), NO (inactive)

Hi, sorry to bother you, what did the test record for "CC(=O)[C@@H]1CC[C@]2(C(N)=O)CC[C@]3(C)[C@H](CC[C@@H]4[C@@]5(C)CCCNC(C)(C)[C@@H]5CC[C@]43C)[C@@H]12" ? NO

Hi, sorry to bother you, what did the test record for Cc1ccc(-n2nc3c(c(C#N)c2=O)CC(c2ccccc2[N+](=O)[O-])C([N+](=O)[O-])=C3O)cc1 (configuration not stated) ? NO

Hi, sorry to bother you, what did the test record for "Cc1ccc(CNc2c3ccccc3nc3cc(NC(=O)CCN4CCCC4)ccc23)cc1" ? NO

Hi, sorry to bother you, what did the test record for "COc1ccc2[nH]c(O)c(/C=c3/cc4c(c(-c5ccc(F)cc5)n3)=Nc3ccccc3-4)c2c1" ? NO

Hi, sorry to bother you, what did the test record for "Cc1cnc(C(=O)Nc2nc3ccc(S(=O)(=O)Nc4ccc(C(C)(C)C)cc4)cc3[nH]2)cn1" ? NO

Next:
Hi, sorry to bother you, what did the test record for "Oc1ccc(C(c2ccc(O)cc2)c2ccc(Br)cn2)cc1" ? NO

Hi, sorry to bother you, what did the test record for "O=C1Nc2ccccc2/C1=C\c1c(-c2ccccc2)nc2ccccn12" ? NO

Hi, sorry to bother you, what did the test record for "Cc1c2cc[nH]c(=O)c2c(C)c2c1[nH]c1cc(OCCN3CCN(C)CC3)ccc12" ? YES

Hi, sorry to bother you, what did the test record for "CC(=O)c1ccc(NS(=O)(=O)c2cccc(C(=O)Nc3ccc(Br)cc3)c2)cc1" ? NO

====

- Test system: HCC-2998 colon
- Test Name: NCI-60 one-dose screen, 48 h (100 = growth as untreated, 0 = no growth, -100 = all killed)
- Run Conditions: 10 µM unless noted
The panel holds about 83,000 compounds, 20% with a hit somewhere; the sample as a whole holds those more often.
Classification field: satisfied = growth at or over 70%; not satisfied = growth under 70%.

# example entries with known answers
Entry "C=C(C)[C@@H]1CC[C@]2(CN)CC[C@]3(C)[C@H](CC[C@@H]4[C@@]5(C)CCCNC(C)(C)[C@@H]5CC[C@]43C)[C@@H]12" : is its growth no less than 70%? not satisfied

Entry "O=Cc1ccc(-c2cn3ccnc3c(-c3ccc4ncn(Cc5ccccc5)c4c3)n2)cc1" : is its growth no less than 70%? satisfied

Entry "CC(=O)Oc1ccc(/C=N/NC(N)=S)nc1" : is its growth no less than 70%? not satisfied

Entry "N#C/C(=C\c1ccc(C(F)(F)F)cc1)c1cc2ccccc2[nH]1" : is its growth no less than 70%? satisfied

Entry "c1ccc2cc(Cn3c(-c4cccc5ccccc45)[n+](Cc4ccc5ccccc5c4)c4c5ccccc5c5ccccc5c43)ccc2c1" : is its growth no less than 70%? not satisfied

Entry O=C(/C(=C\c1ccc([N+](=O)[O-])cc1)S(=O)Cc1ccc(F)cc1)c1ccc(F)cc1 (stereo unspecified) : is its growth no less than 70%? not satisfied

Next:
Entry "Cc1cc(C(=O)/C=C/c2ccc[nH]2)ccc1-n1ccc(C(F)(F)F)n1" : is its growth no less than 70%? satisfied

Entry "Cc1cc(C)c(S(=O)(=O)Oc2ccccc2[N+](=O)[O-])c(C)c1" : is its growth no less than 70%? not satisfied

Entry "C=C1C(=O)O[C@H]2[C@H]1CC/C(CNC(=O)c1cccc3ccccc13)=C\CC[C@@]1(C)O[C@@H]21" : is its growth no less than 70%? satisfied

Entry "C[C@H](c1nc2ccc(N)cc2[nH]1)[C@H]1CC[C@H]2[C@@H]3CCC4=CC(=O)CC[C@]4(C)[C@H]3CC[C@]12C" : is its growth no less than 70%? satisfied

Entry "COc1ccc2c(c1)oc1c(C)c3c(c(C)c12)C(=O)N(CCN1CCOCC1)C3=O" : is its growth no less than 70%? satisfied

Entry "O=C1c2cccc3c(-c4ccc5c(c4)ncn5C4CCCCC4)ccc(c23)C(=O)N1CCO" : is its growth no less than 70%? satisfied

Entry "Cc1nc2ccc(Cl)cn2c1-c1nnc(SCc2ccc([N+](=O)[O-])cc2)o1" : is its growth no less than 70%? satisfied

Entry "C[C@@H](Nc1ncnc2ccc(-c3cnc(N)nc3)cc12)c1ccc(F)cc1" : is its growth no less than 70%? satisfied

Entry "O=C1Nc2cc(-c3cccc(O)c3)ccc2/C1=C/c1ccc[nH]1" : is its growth no less than 70%? not satisfied

Entry "C=CC(=O)N[C@@H](/C=C/C(=O)OCC)Cc1ccc(-c2cc(Cl)cc(Cl)c2)cc1" : is its growth no less than 70%? not satisfied

Entry "CCC(CC)NCC(C)(C)O" : is its growth no less than 70%? satisfied

Entry CC(=O)N1N=C(c2ccc(-n3ccc(C(F)(F)F)n3)c(F)c2)CC1c1ccc[nH]1 (stereo unspecified) : is its growth no less than 70%? satisfied

Entry "CCCCCN1C=C/C(=C\C(=O)N(C)c2ccc(Oc3ccccc3)cc2)c2ccccc21" : is its growth no less than 70%? satisfied

Entry CN(C)CC(O)c1ccc(/C=C/c2ccc(Cl)cc2)cc1 (stereo unspecified) : is its growth no less than 70%? not satisfied

Entry "Cc1cccc(NC(=O)Nc2ccc(-n3cnc4cc(-c5ccc(O)cc5)ccc43)cc2)c1" : is its growth no less than 70%? not satisfied

Entry "O=C(CCN1CCCC1)Nc1ccc2c(Nc3ccc(Br)cc3)c3ccccc3nc2c1" : is its growth no less than 70%? not satisfied

Entry "CC(C)N1C(=O)/C(=C2\SC(=S)N(C(C)C)C2=O)SC1=S" : is its growth no less than 70%? satisfied

Entry "C#CCNC(=O)[C@H](Cc1ccccc1)NC(=O)[C@]12CC[C@@H](C(=C)C)[C@@H]1[C@H]1CC[C@@H]3[C@@]4(C)CCC(=O)C(C)(C)[C@@H]4CC[C@@]3(C)[C@]1(C)CC2" : is its growth no less than 70%? satisfied

Ref: PubChem BioAssay (NCI)
